The values you see were collected from patent US20240059771A1.

# Tgt: T1, human CLDN-18.2 (human, UniProt P56856-2 1-261)
# T1 construct: whole, on cells
# Assay Overview: flow cytometry (FACS) on NUGC4-CLDN-18.2 cells, fluorescent secondary antibody, MFI
# From the text: Fluorescent signal was detected by FACS; the stronger the detected fluorescent signal, the higher the antibody affinity, that is, the higher the target binding activity. Antibody binding curves were fitted by GraphPad (FIGS. 4a, 4b and 4c), and the positive and negative controls were IMAB362 and anti-KLH hu-IgG1 antibody, respectively.
Answer each item with its documented EC50 (read off the curve).

| Binder | EC50 (read off the curve) |
| --- | --- |
| humanized anti-CLDN-18.2 antibody JS012-Chi27-hu6-v3-2 (antibody, human IgG1, V domains shown) VH: EVQLVESGGGLVKPGGSLRLSCAASGFTFSSYGMSWVRQAPGKGLESVSTISGGDSYTYYPDSVRGRFTISRDIAKNSLYLQMNSLRAEDTAVYYCARSYNGNSLPYWGQGTLVTVSS VL: DIVMTQSPDSLAVSLGERATINCKSSQSLLNSGNQRNYLTWYQQKPGQPPKLLIYWASTRESGVPDRFSGSGSGTDFTLTISSLQAEDVAVYYCQNNYFYPFTFGQGTKLEIK | ~5 µg/mL |
| humanized anti-CLDN-18.2 antibody JS012-Chi27-hu3-v2 (antibody, human IgG1, V domains shown) VH: EVQLVESGGGLVKPGGSLRLSCAASGFTFSSYGMSWVRQAPGKGLEWVSTISGGDSYTYYPDSVRGRFTISRDNAKNSLYLQMNSLRAEDTAVYYCARSYNGNSLPYWGQGTLVTVSS VL: DIVMTQSPDSLAVSLGERATINCKSSQSLLNSGNQRNYLTWYQQKPGQPPKLLIYWASTRESGVPDRFSGSGSGTDFTLTISSLQAEDVAVYYCQNNYFYPFTFGQGTKLEIK | ~1 µg/mL |
| humanized anti-CLDN-18.2 antibody JS012-Chi9-hu7-v2 (antibody, human IgG1, kappa, V domains shown) VH: QVQLVQSGSELKKPGESVKVSCKASGYTFTNYGMNWVRQAPGQGLEWMGWINTYTGESTYADGFTGRFVFSMDTSASTAYLQISSLKAEDMAMYFCATLGYGNSLAYWGQGTLVTVSS VL: DIVMTQSPDSLAVSLGERATINCKSSQSLLNSGNQRNYLTWYQQKPGQPPKLLIYWASTRESGVPDRFSGSGSGTDFTLTISSLQAEDVAVYYCQNNYFYPFTFGQGTKLEIKR | ~1 µg/mL |

Shift focus to the following entry.
get_value(item= IMAB362 (antibody, V domains shown) VH: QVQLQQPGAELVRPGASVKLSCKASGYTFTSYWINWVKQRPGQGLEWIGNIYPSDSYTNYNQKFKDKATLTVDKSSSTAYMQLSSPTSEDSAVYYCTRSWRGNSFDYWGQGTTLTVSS VL: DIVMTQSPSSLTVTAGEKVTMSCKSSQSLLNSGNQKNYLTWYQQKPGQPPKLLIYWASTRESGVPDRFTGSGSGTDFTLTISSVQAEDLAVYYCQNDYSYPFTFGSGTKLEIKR , readout=EC50 (read off the curve)) returns ~2 µg/mL
